Values from ChEMBL document CHEMBL1147662

Record form. Attribute: EC50. Fill in for each entry.
Biological target: Beta-1 adrenergic receptor (Homo sapiens, UniProt P08588)
Sequence (P08588 whole entry): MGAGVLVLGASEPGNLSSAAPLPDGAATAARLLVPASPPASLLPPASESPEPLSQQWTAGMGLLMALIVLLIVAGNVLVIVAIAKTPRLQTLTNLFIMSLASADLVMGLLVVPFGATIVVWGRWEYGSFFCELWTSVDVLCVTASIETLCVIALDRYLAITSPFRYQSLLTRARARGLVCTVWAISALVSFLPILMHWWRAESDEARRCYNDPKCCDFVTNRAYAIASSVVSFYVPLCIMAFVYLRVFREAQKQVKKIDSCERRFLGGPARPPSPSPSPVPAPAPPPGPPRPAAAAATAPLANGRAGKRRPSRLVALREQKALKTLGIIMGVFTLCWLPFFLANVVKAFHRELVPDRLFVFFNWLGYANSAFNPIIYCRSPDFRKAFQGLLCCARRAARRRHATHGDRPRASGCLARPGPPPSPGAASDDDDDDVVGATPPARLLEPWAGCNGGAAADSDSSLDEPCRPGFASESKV
Numbers only, in nM.

Study these solved cases before continuing.
>  <Smiles repr>
Cc1ccc(C(=O)O)cc1-c1cccc(NCCNC[C@H](O)c2cccc(Cl)c2)c1

>  <Tgt>
Beta-1 adrenergic receptor (Homo sapiens, UniProt P08588)

>  <EC50, nM>
794

$$$$
>  <Smiles repr>
C[C@H](CNc1cccc(-c2ncccc2C(=O)O)c1)NC[C@H](O)c1cccc(Cl)c1

>  <Tgt>
Beta-1 adrenergic receptor (Homo sapiens, UniProt P08588)

>  <EC50, nM>
794

$$$$

// next item, EC50 requested
Given "C[C@H](CNc1cccc(-c2ccc(C(=O)O)cc2)c1)NC[C@H](O)c1cccc(Cl)c1" , state its recorded EC50.
794
